Test: in vitro
Settings: Dunkin Hartley, guinea pig, plasma
READOUT_LABEL: fraction unbound at 5 h

## Input Identify measured fraction unbound at 5 h associated with `O=c1[nH]c2c(O)ccc([C@@H](O)CNCCCSCCOCCc3cccc4ccccc34)c2s1`
## Output 0.0088

## Input Identify measured fraction unbound at 5 h associated with `CCCCN(CCNCCc1ccc(O)c2[nH]c(=O)sc12)C(=O)CCOCCc1ccccc1`
## Output 0.17

## Input Identify measured fraction unbound at 5 h associated with `COc1ccccc1CCNCc1ccc(CCNC[C@H](O)c2ccc(O)c3[nH]c(=O)sc23)cc1`
## Output 0.0447

## Input Identify measured fraction unbound at 5 h associated with `O=C(CC1CCN(Cc2ccn(-c3ccc(C(F)(F)F)cn3)c2)CC1)NC(c1ccc(F)cc1)c1ccc(F)cc1`
## Output 0.013

## Input Identify measured fraction unbound at 5 h associated with `Cc1cc(CCC[N+]23CCC(CC2)[C@@H](OC(=O)[C@](C)(c2ccccc2)N2CCCCC2)C3)ccn1`
## Output 0.529

## Input Identify measured fraction unbound at 5 h associated with `C[C@H](Cc1cccc(CC(=O)NC23CC4CC(CC(C4)C2)C3)c1)NC[C@H](O)c1ccc(O)c(CO)c1`
## Output 0.208

## Input Identify measured fraction unbound at 5 h associated with `NC(=O)[C@@H](CCC(F)(F)F)N(Cc1ccc(-c2ncon2)cc1F)S(=O)(=O)c1ccc(Cl)cc1`
## Output 0.0081

## Input Identify measured fraction unbound at 5 h associated with `C[N+]1(C)[C@@H]2C[C@@H](OC(=O)C(O)(c3cccs3)c3cccs3)C[C@H]1[C@@H]1O[C@@H]12`
## Output 0.613

I would be grateful if you could provide fraction unbound at 5 h for each of the following entries.
1. O=C1COc2c(CCNCCN(C(=O)CCNCCc3ccc(Cl)c(Cl)c3)C3CCCCC3)ccc(O)c2N1
2. CCN(CCNCCc1ccc(O)c2[nH]c(=O)sc12)C(=O)CCOCCc1ccccc1
3. O=CNc1cc([C@@H](O)CNCCc2ccc(NC[C@H](O)c3ccccc3)cc2)ccc1O

## Output
1. 0.173
2. 0.103
3. 0.194
